- measurement description: Assessment of solubility (HT solubility, pION, UV)
- Type: physicochemical
- condition label: pH 4.5 buffer (pION system solution), pH 4.5, aqueous buffer, kinetic from dmso stock, pH 4.5 buffer, incubated 16-19 hours, 1.0% DMSO, 100 uM; read-out: Sol pH 4.5
measurement name: solubility kinetic

molecule: Cc1ccc(OCc2ccc3c(c2)CCN(Cc2ccccn2)C3)c(-c2cccc(-n3ncc(C(=O)O)c3C(F)(F)F)n2)c1
solubility kinetic: > 59 µg/mL

molecule: Cc1ccc(OCc2ccc3c(c2)CCN(C)C3)c(-c2cccc(-c3csc(C(=O)O)c3C)n2)c1
solubility kinetic: 0.1 µg/mL

molecule: Cc1cccc(-c2cccc(-c3ncc(C(=O)O)n3C)n2)c1OCc1ccc2c(c1)CCN(C1CCOCC1)C2
solubility kinetic: > 78 µg/mL

Lab note: next molecule to report on.
# query: solubility kinetic of entry Cc1ncc(CN2CCc3cc(COc4c(C)cccc4-c4cccc(-c5ncc(C(=O)O)n5C)n4)ccc3C2)s1
> 66 µg/mL

* * *

- measurement description: Assessment of solubility (HT solubility, pION, UV)
- Type: physicochemical
- condition label: pH 4.5 buffer (pION system solution), pH 4.5, aqueous buffer, kinetic from dmso stock, pH 4.5 buffer, incubated 16-19 hours, 1.0% DMSO, 100 uM; read-out: Sol pH 4.5
For each entry below, report its log10 solubility kinetic value.
Heads up: the numbers are on a log10 scale; they represent solubility kinetic in µg/mL.

# annotated cases, reported log10 solubility kinetic shown
molecule: Cc1ccc(OCc2ccc3c(c2)CCN(C)C3=O)c(-c2cccc(-n3ncc(C(=O)O)c3C(F)(F)F)n2)c1
recorded result: 0.84
//
molecule: Cc1ccc(OCc2ccc3c(c2C)CCN(C2CCOC2)C3)c(-c2cccc(-c3csc(C(=O)O)c3C)n2)c1 (centres unmarked)
recorded result: 1.60
//
molecule: Cc1ccc(OCc2ccc3c(c2)CCN(C)C3)c(-c2cccc(-n3ncc(C(=O)O)c3C)n2)c1
recorded result: 1.19
//
molecule: Cc1ccc(OCc2ccc3c(c2)CCN(S(C)(=O)=O)C3)c(-c2cccc(-n3ncc(C(=O)O)c3C(F)(F)F)n2)c1
recorded result: -1.00

Consider the following items and state reported log10 solubility kinetic for each.
1. Cc1ccc(OCc2ccc3c(c2)CCN(Cc2nc(C)cs2)C3)c(-c2cccc(-c3csc(C(=O)O)c3C)n2)c1
2. Cc1ccc(OCc2ccc3c(c2C)CCN(C)C3)c(-c2cccc(-c3c(C)c(C(=O)O)nn3C)n2)c1

1: 1.14; 2: 1.38

* * *

- measurement description: Assessment of solubility (HT solubility, pION, UV)
- Assay type: physicochemical
- condition label: pH 7.4 buffer, incubated 16-19 hours, 1.0% DMSO, 100 uM
measurement name: Sol pH 7.4

Examples from the recorded data:
molecule: Cc1ccc(OCc2ccc3c(c2)CCN(C2CC2)C3)c(-c2cccc(-n3ncc(C(=O)O)c3C(F)(F)F)n2)c1
Sol pH 7.4: >54 μg/mL
--
molecule: Cc1ccc(OCc2ccc3c(c2)CCN(CCC2CCOCC2)C3)c(-c2cccc(-n3ncc(C(=O)O)c3C(F)(F)F)n2)c1
Sol pH 7.4: >62 μg/mL

// next entry
Need Sol pH 7.4 of Cc1ccc(OCc2ccc3c(c2)N(C)CCC3)c(-c2cccc(-n3ncc(C(=O)O)c3C(F)(F)F)n2)c1 , thanks.
>52 μg/mL
